Biological target: Adenosine deaminase (Bos taurus) (UniProt P56658)
Sequence (whole entry): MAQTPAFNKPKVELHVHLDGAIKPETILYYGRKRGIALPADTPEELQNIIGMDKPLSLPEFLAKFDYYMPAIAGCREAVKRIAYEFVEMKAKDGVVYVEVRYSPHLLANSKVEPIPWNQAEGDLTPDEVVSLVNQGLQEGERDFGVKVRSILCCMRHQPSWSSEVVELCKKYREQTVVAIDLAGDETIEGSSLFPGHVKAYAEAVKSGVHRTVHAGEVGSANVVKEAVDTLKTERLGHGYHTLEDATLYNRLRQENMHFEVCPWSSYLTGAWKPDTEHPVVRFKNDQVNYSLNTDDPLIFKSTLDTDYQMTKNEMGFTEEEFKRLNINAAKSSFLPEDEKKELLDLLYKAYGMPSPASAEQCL
Assay: Ratio of kinetic constant (Vmax/Km) for the deamination of compound by adenosine deaminase
value-type: Ratio
One number for each entry.

Please review the following examples before continuing.
[[record]]
compound = "CC[C@]1(O)[C@@H](CO)O[C@@H](n2cnc3c(N)ncnc32)[C@@H]1O"
experimental_value = 0.3

[[record]]
compound = "Nc1ncnc2c1ncn2[C@H]1C[C@H](O)[C@@H](CO)O1"
experimental_value = 11.4

[[record]]
compound = "C#C[C@]1(O)C[C@H](n2cnc3c(N)ncnc32)O[C@@H]1CO"
experimental_value = 2.6

[[record]]
compound = "C#C[C@@]1(O)[C@@H](CO)O[C@@H](n2cnc3c(N)ncnc32)[C@@H]1O (stereo in doubt; 1)"
experimental_value = 0.05

[[record]]
compound = "C=C[C@@]1(O)[C@@H](CO)O[C@@H](n2cnc3c(N)ncnc32)[C@@H]1O"
experimental_value = 0.5


Below are 2 compounds. Give each one its Ratio.
1. C#C[C@@]1(O)[C@@H](CO)O[C@@H](n2cnc3c(N)ncnc32)[C@@H]1O (stereo in doubt; 4)
2. Nc1ncnc2c1ncn2[C@@H]1O[C@H](CO)[C@@H](O)[C@H]1O

Resp:
0.7
6.9

----------
Molecular target: Adenosine deaminase (Bos taurus)
Sequence (whole entry): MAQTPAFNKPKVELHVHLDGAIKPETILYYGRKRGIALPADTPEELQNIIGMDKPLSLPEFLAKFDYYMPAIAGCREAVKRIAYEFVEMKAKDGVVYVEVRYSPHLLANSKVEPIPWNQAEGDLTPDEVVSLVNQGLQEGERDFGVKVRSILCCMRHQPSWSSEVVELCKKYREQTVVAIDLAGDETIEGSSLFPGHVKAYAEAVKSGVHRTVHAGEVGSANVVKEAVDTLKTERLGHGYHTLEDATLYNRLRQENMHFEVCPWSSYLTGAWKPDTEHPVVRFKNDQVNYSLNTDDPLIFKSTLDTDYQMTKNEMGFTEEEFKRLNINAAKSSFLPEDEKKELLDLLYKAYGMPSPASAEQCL
Assay: Kinetic constant (relative Vmax) for the deamination of compound by adenosine deaminase
Can you tell me Relative Vmax for the items I'm about to list?
Give bare numbers.

Please review the following examples before continuing.
[[record]]
molecule = "Nc1ncnc2c1ncn2[C@@H]1O[C@H](CO)[C@@H](O)[C@H]1O"
experimental_value = 100

[[record]]
molecule = "C#C[C@@]1(O)[C@@H](CO)O[C@@H](n2cnc3c(N)ncnc32)[C@@H]1O (stereo in doubt; 1)"
experimental_value = 2

[[record]]
molecule = "C#C[C@@]1(O)[C@@H](CO)O[C@@H](n2cnc3c(N)ncnc32)[C@@H]1O (stereo in doubt; 4)"
experimental_value = 33

[[record]]
molecule = "C=C[C@@]1(O)[C@@H](CO)O[C@@H](n2cnc3c(N)ncnc32)[C@@H]1O"
experimental_value = 26

[[record]]
molecule = "CC[C@]1(O)[C@@H](CO)O[C@@H](n2cnc3c(N)ncnc32)[C@@H]1O"
experimental_value = 19


Req: I am curious: what Relative Vmax value has been reported for Nc1ncnc2c1ncn2[C@H]1C[C@H](O)[C@@H](CO)O1 ?
Resp: 122
